Source listed as patent US20070117743A1.

This listing pairs compounds with measured CC50.
test system: HeLa; assay: SRB colorimetric assay of cell growth and viability, HeLa; format: cell-based, human; conditions: 48 hours exposure; read-out: LC50 HELA
Where a SMILES comes first, the peptide text is derived from it. Bridges are numbered along the chain shown (N, C = ends). [ ]: non-standard residue; d: D form. The star is where a group is joined. d(aIle) = CC[C@H](C)[C@@H](N)C(=O)O; d(aThr) = C[C@@H](O)[C@@H](N)C(=O)O; Hexanoyl(5-Me) = CC(C)CCCC(=O)*; Orn = NCCC[C@H](N)C(=O)O; Dhb = C/C=C(\N)C(=O)O
quantity-name: CC50 (µM)

compound: C/C=C1\NC(=O)[C@H](Cc2ccccc2)NC(=O)[C@@H](C(C)C)NC(=O)[C@@H]([C@@H](C)CC)NC(=O)[C@H](NC(=O)[C@H](NC(=O)[C@H](CCCN)NC(=O)[C@H]2CCCN2C(=O)[C@H](NC(=O)[C@@H](NC(=O)[C@H](CC(C)C)NC(=O)CCCC(C)C)C(C)C)C(C)C)[C@@H](C)CC)[C@@H](C)OC(=O)[C@H](C(C)C)NC1=O [Compound 54, [Leu^12, noD-Val^13]-KF] ({Hexanoyl(5-Me)}-LV[dV][dP][Orn][d(aIle)][d(aThr)][d(aIle)][dV]F[Dhb]V; ester 7-C)
display-unit: µM
limit-operator: =
result-number: 3.54
//
compound: C/C=C1\NC(=O)[C@H](Cc2ccccc2)NC(=O)[C@@H](C(C)C)NC(=O)[C@@H]([C@@H](C)CC)NC(=O)[C@H](NC(=O)[C@H](NC(=O)[C@H](CCCN)NC(=O)[C@H]2CCCN2C(=O)[C@H](NC(=O)[C@@H](NC(=O)[C@H](CCC(=O)O)NC(=O)CCCC(C)C)C(C)C)C(C)C)[C@@H](C)CC)[C@@H](C)OC(=O)[C@H](C(C)C)NC1=O [Compound 56, [Glu^12, noD-Val^13]-KF] ({Hexanoyl(5-Me)}-EV[dV][dP][Orn][d(aIle)][d(aThr)][d(aIle)][dV]F[Dhb]V; ester 7-C)
display-unit: µM
limit-operator: ≥
result-number: 7.11
//
compound: C/C=C1\NC(=O)[C@H](Cc2ccccc2)NC(=O)[C@@H](C(C)C)NC(=O)[C@@H]([C@@H](C)CC)NC(=O)[C@H](NC(=O)[C@H](NC(=O)[C@H](CCCN)NC(=O)[C@H]2CCCN2C(=O)[C@H](NC(=O)[C@@H](NC(=O)[C@@H](NC(=O)[C@H](NC(=O)CCCCCCC)C(C)C)[C@@H](C)O)C(C)C)C(C)C)[C@@H](C)CC)[C@@H](C)OC(=O)[C@H](C(C)C)NC1=O [Compound 18, [Oct^14]-KF]
display-unit: µM
limit-operator: =
result-number: 1.68
//
compound: C/C=C1\NC(=O)[C@H](Cc2ccccc2)NC(=O)[C@@H](C(C)C)NC(=O)[C@@H]([C@@H](C)CC)NC(=O)[C@H](NC(=O)[C@H](NC(=O)[C@H](CCCN)NC(=O)[C@H]2CCCN2C(=O)[C@H](NC(=O)[C@@H](NC(=O)[C@@H](NC(=O)[C@H](NC(=O)CCCCCCCCCC)C(C)C)[C@@H](C)O)C(C)C)C(C)C)[C@@H](C)CC)[C@@H](C)OC(=O)[C@H](C(C)C)NC1=O [Compound 15, [Und^14]-KF]
display-unit: µM
limit-operator: =
result-number: 0.588
//
compound: C/C=C1\NC(=O)[C@H](Cc2ccccc2)NC(=O)[C@@H](C(C)C)NC(=O)[C@@H]([C@@H](C)CC)NC(=O)[C@H](NC(=O)[C@H](NC(=O)[C@H](CCCN)NC(=O)[C@H]2CCCN2C(=O)[C@H](NC(=O)[C@@H](NC(=O)[C@@H](NC(=O)[C@H](NC(=O)CCCC(C)C)C(C)C)[C@@H](C)O)C(C)C)C(C)C)[C@@H](C)CC)COC(=O)[C@H](C(C)C)NC1=O [Compound 3, [D-Ser^6]-KF] ({Hexanoyl(5-Me)}-[dV]TV[dV][dP][Orn][d(aIle)][dS][d(aIle)][dV]F[Dhb]V; ester 8-C)
display-unit: µM
limit-operator: =
result-number: 5.21
//
compound: C/C=C1\NC(=O)[C@H](Cc2ccccc2)NC(=O)[C@@H](C(C)C)NC(=O)[C@@H]([C@@H](C)CC)NC(=O)[C@H](NC(=O)[C@H](NC(=O)[C@H](CCCN)NC(=O)[C@H]2CCCN2C(=O)[C@H](NC(=O)[C@@H](NC(=O)[C@@H](NC(=O)[C@H](NC(=O)CCCCCCCCCCCCCCCCCCC)C(C)C)[C@@H](C)O)C(C)C)C(C)C)[C@@H](C)CC)[C@@H](C)OC(=O)[C@H](C(C)C)NC1=O [Compound 13, [Icos^14]-KF]
display-unit: µM
limit-operator: =
result-number: 5.25
//
compound: C/C=C1\NC(=O)[C@H](Cc2ccccc2)NC(=O)[C@@H](C(C)C)NC(=O)[C@@H]([C@@H](C)CC)NC(=O)[C@H](NC(=O)[C@H](NC(=O)[C@H](CCCN)NC(=O)[C@H]2CCCN2C(=O)[C@H](NC(=O)[C@@H](NC(=O)[C@@H](NC(=O)[C@@H](C)NC(=O)CCCC(C)C)[C@@H](C)O)C(C)C)C(C)C)[C@@H](C)CC)[C@@H](C)OC(=O)[C@H](C(C)C)NC1=O [Compound 34, [D-Ala^13]-KF]
display-unit: µM
limit-operator: =
result-number: 4.06
